abundance fitness: recorded values
B1: Membrane-associated guanylate kinase, WW and PDZ domain-containing protein 1, residues 352 to 401; numbered along this chain, Q96QZ7 (parent)
chain: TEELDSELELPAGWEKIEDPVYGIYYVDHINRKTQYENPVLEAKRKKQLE

Variants of: B1
Assay: abundance fitness (aPCA) (normalised: wild type 0, dead -1); higher = more abundant; growth selection in yeast, the domain comes from the species named
Details: Homo sapiens
Field format: numeric only.

Examples with their reported abundance fitness follow.
# Mutation key, abundance fitness
records = [
    ("I17H", -0.241),
    ("R45H", -0.564),
    ("L10V", -0.221),
]

Problem: Look up abundance fitness: L49P
Result: -0.049

Problem: Any idea what its abundance fitness is? The variant is E15C
Result: -0.794

Problem: Given the variant E37F , what is its reported abundance fitness?
Result: -0.438
